Tested on: rodent lifetime carcinogenesis bioassay, tumor incidence TD50
Experiment: carcinogenic potency in animals, long-term in vivo studies, CPDB compilation (AID 1745844)
Details: mouse; strain B6C3F1; females; by gavage; site: liver; lesion: hepatocellular adenoma; dosed 88 weeks; study length 104 weeks
Measurement Type: TD50

TD50 for rodent lifetime carcinogenesis bioassay, tumor incidence TD50 with input `ClCC(Cl)CCl` equals 3.33 mg/kg/day

----------
System: rodent lifetime carcinogenesis bioassay, tumor incidence TD50
Test: carcinogenic potency in animals, long-term in vivo studies, CPDB compilation (AID 1745844)
Settings: rat; strain Fischer 344; males; in feed; site: any site (literature study); lesion: several types; types named in the paper; dosed 103 weeks; study length 107 weeks
Measurement Type: TD50 (mg/kg/day)
Give bare numbers, in mg/kg/day.

Noted for `Nc1ccccc1` : its TD50 reads 124

----------
System: rodent lifetime carcinogenesis bioassay, tumor incidence TD50
Assay: carcinogenic potency in animals, long-term in vivo studies, CPDB compilation (AID 1745844)
Settings: rat; strain Fischer 344/Jcl; females; by gavage; site: mammary gland; lesion: adenocarcinoma; dosed 55 weeks; study length 104 weeks
Measurement Type: TD50

Record summary for `O=[N+]([O-])c1ccc2ccc3cccc4ccc1c2c34` : reported TD50 = 4.82 mg/kg/day

----------
Test system: rodent lifetime carcinogenesis bioassay, tumor incidence TD50
Assay: carcinogenic potency in animals, long-term in vivo studies, CPDB compilation (AID 1745844)
Conditions: mouse; strain C3H/HeN-MTV-/Nctr (MTV-); females; in feed; site: all sites; lesion: mesothelioma; dosed 125 weeks; study length 125 weeks
Measurement Type: TD50
Include the unit right after the number.

The measured TD50 associated with `CC/C(=C(/CC)c1ccc(O)cc1)c1ccc(O)cc1` reads 0.52 mg/kg/day

----------
Tested on: rodent lifetime carcinogenesis bioassay, tumor incidence TD50
Assay: carcinogenic potency in animals, long-term in vivo studies, CPDB compilation (AID 1745844)
Settings: rat; strain Fischer 344; females; in feed; site: any site (literature study); lesion: several types; types named in the paper; dosed 101 weeks; study length 101 weeks
Measurement Type: TD50 (mg/kg/day)
Give bare numbers, in mg/kg/day.

Noted TD50 for `Cc1cc(C)c(N)cc1C` , tested on rodent lifetime carcinogenesis bioassay, tumor incidence TD50: 396

----------
Tested on: rodent lifetime carcinogenesis bioassay, tumor incidence TD50
Test: carcinogenic potency in animals, long-term in vivo studies, CPDB compilation (AID 1745844)
Details: mouse; strain B6C3F1; males; inhaled; site: liver; lesion: hepatocellular adenoma + hepatoblastoma + hepatocellular carcinoma; dosed 26 weeks; study length 53 weeks
Measurement Type: TD50 (mg/kg/day)
One number for each entry, in mg/kg/day.

Lab note: `C=CC(=C)C` gave TD50 of 183

----------
System: rodent lifetime carcinogenesis bioassay, tumor incidence TD50
Assay: carcinogenic potency in animals, long-term in vivo studies, CPDB compilation (AID 1745844)
Conditions: mouse; strain Swiss albino; females; in drinking water; site: lung; lesion: several types; types named in the paper; dosed 99 weeks; study length 100 weeks
Measurement Type: TD50

Documented TD50 of `CN(N)C=O` : 0.921 mg/kg/day

----------
System: rodent lifetime carcinogenesis bioassay, tumor incidence TD50
Assay: carcinogenic potency in animals, long-term in vivo studies, CPDB compilation (AID 1745844)
Details: mouse; strain ICR/Jcl; males; in feed; site: forestomach; lesion: squamous-cell carcinoma; dosed 52 weeks; study length 65 weeks
Measurement Type: TD50

Hey, rodent lifetime carcinogenesis bioassay, tumor incidence TD50 data for `CCCCN(CCCC)N=O` : TD50 came out at 1.09 mg/kg/day

----------
System: rodent lifetime carcinogenesis bioassay, tumor incidence TD50
Experiment: carcinogenic potency in animals, long-term in vivo studies, CPDB compilation (AID 1745844)
Details: mouse; strain B6C3F1; males; oral dosing; site: any site (literature study); lesion: several types; types named in the paper; dosed 79 weeks; study length 79 weeks
Please provide measured TD50 for the entries that follow.
Numbers only, in mg/kg/day.

# Compound, Output Unit, TD50
measured = [
    ("C=C1C(C)(C)[C@@]2(Cl)C(Cl)[C@]1(Cl)C(Cl)(Cl)C2(Cl)Cl (some centres not stated)", "mg/kg/day", 0.75),
]

Record summary for `OCCN(CCO)C(=S)S` : reported TD50 = 27.8

----------
Test system: rodent lifetime carcinogenesis bioassay, tumor incidence TD50
Experiment: carcinogenic potency in animals, long-term in vivo studies, CPDB compilation (AID 1745844)
Settings: hamster; strain Syrian Golden; females; in feed; site: uterus; lesion: leiomyoma; dosed 101 weeks; study length 101 weeks
Activity calls are given as the source filed them. How the calls were made is not given here.
Measurement Type: TD50

TD50 for `O=c1c(O)c(-c2ccc(O)c(O)c2)oc2cc(O)cc(O)c12` is 39200 mg/kg/day (inactive)

----------
Test system: rodent lifetime carcinogenesis bioassay, tumor incidence TD50
Test: carcinogenic potency in animals, long-term in vivo studies, CPDB compilation (AID 1745844)
Conditions: mouse; strain B6C3F1; males; inhaled; site: lung; lesion: alveolar/bronchiolar adenoma + alveolar/bronchiolar carcinoma; dosed 104 weeks; study length 104 weeks
Measurement Type: TD50 (mg/kg/day)
Give bare numbers, in mg/kg/day.

# Item Smiles, Output Unit, TD50
records = [
    ("C=CC(=C)Cl", "mg/kg/day", 17.2),
]

Shifting focus to the molecule that follows.
# TD50 (molecule: `O=[O+][O-]` ) is 0.894

----------
Tested on: rodent lifetime carcinogenesis bioassay, tumor incidence TD50
Test: carcinogenic potency in animals, long-term in vivo studies, CPDB compilation (AID 1745844)
Settings: rat; strain Fischer 344; females; by gavage; site: uterus; lesion: one or several types; types not named; dosed 30 weeks; study length 104 weeks
Measurement Type: TD50

Entry `CCN(N=O)C(=O)NCC(C)=O` — recorded TD50 = 1.84 mg/kg/day

----------
Test system: rodent lifetime carcinogenesis bioassay, tumor incidence TD50
Experiment: carcinogenic potency in animals, long-term in vivo studies, CPDB compilation (AID 1745844)
Details: rat; strain Lewis; females; in feed; site: liver; lesion: hepatocellular carcinoma; dosed 48 weeks; study length 48 weeks
Measurement Type: TD50

Quick note, TD50 for `CC/C(=C(\c1ccccc1)c1ccc(OCCN(C)C)cc1)c1ccccc1` landed at 1.38 mg/kg/day

----------
Tested on: rodent lifetime carcinogenesis bioassay, tumor incidence TD50
Experiment: carcinogenic potency in animals, long-term in vivo studies, CPDB compilation (AID 1745844)
Settings: mouse; strain CD-1 HaM/ICR; females; in feed; site: all sites; lesion: all vascular tumors; dosed 68 weeks; study length 86 weeks
Measurement Type: TD50

Measured TD50 of `Nc1ccc(Oc2ccc(Cl)cc2)cc1` : 346 mg/kg/day

----------
System: rodent lifetime carcinogenesis bioassay, tumor incidence TD50
Experiment: carcinogenic potency in animals, long-term in vivo studies, CPDB compilation (AID 1745844)
Details: rat; strain Fischer 344; females; by gavage; site: subcutaneous tissue; lesion: fibroma; dosed 106 weeks; study length 108 weeks
Measurement Type: TD50 (mg/kg/day)
Give bare numbers, in mg/kg/day.

In plain terms, `Cc1ccc(N=C=O)cc1N=C=O` has a documented TD50 of 256

----------
Test system: rodent lifetime carcinogenesis bioassay, tumor incidence TD50
Test: carcinogenic potency in animals, long-term in vivo studies, CPDB compilation (AID 1745844)
Details: mouse; strain B6C3F1; males; in drinking water; site: all sites; lesion: hemangioma; dosed 103 weeks; study length 103 weeks
Calls of active or inactive are those of the source. No rule for the calls is given here.
Measurement Type: TD50

The measured TD50 associated with `O` reads 3470 mg/kg/day (inactive)

----------
System: rodent lifetime carcinogenesis bioassay, tumor incidence TD50
Experiment: carcinogenic potency in animals, long-term in vivo studies, CPDB compilation (AID 1745844)
Conditions: rat; strain Charles River Crl:COBS(WI)BR; males; in feed; site: testis; lesion: interstitial-cell adenoma; dosed 104 weeks; study length 104 weeks
Active and inactive are the calls of the source. The rule behind the calls is not given here.
Measurement Type: TD50

Short answer for O=C(NCC1CCCCN1)c1cc(OCC(F)(F)F)ccc1OCC(F)(F)F (stereo unspecified) : TD50 was 79.1 mg/kg/day (inactive)

----------
Provide the recorded TD50 for the entries that follow.
Test system: rodent lifetime carcinogenesis bioassay, tumor incidence TD50
Test: carcinogenic potency in animals, long-term in vivo studies, CPDB compilation (AID 1745844)
Conditions: mouse; strain B6C3F1; males; in feed; site: any site (literature study); lesion: several types; types named in the paper; dosed 101 weeks; study length 101 weeks
Active and inactive are the calls of the source. How the calls were made is not given here.

// input: 2 compounds below; output: TD50 for each
1. Cc1ccc(N)cc1N
2. Cc1cc(C)c(N)cc1C

result:
1. 105 mg/kg/day
2. 52.5 mg/kg/day (inactive)

----------
Test system: rodent lifetime carcinogenesis bioassay, tumor incidence TD50
Test: carcinogenic potency in animals, long-term in vivo studies, CPDB compilation (AID 1745844)
Details: rat; strain Sprague-Dawley; males; by gavage; site: any site (literature study); lesion: several types; types named in the paper; dosed 104 weeks; study length 141 weeks
Measurement Type: TD50 (mg/kg/day)
Give bare numbers, in mg/kg/day.

TD50 measured on `CCc1ccccc1` = 1160
